- tgt: Glucocorticoid receptor (Homo sapiens)
- assayText: qHTS assay for small molecule agonists of glucocorticoid receptor signaling (AID 588532);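 also: 100% = dexamethasone at 0.1 µM and 0% = DMSO only wells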
- conditionSet: HeLa MMTV-bla, beta-lactamase ratio, agonist, 18 h; active compounds read high; percent of dexamethasone control, DMSO zero
Results filed as inconclusive are left out.
activation reference
endpointLabel: activation (%)

>>> measurement("CNc1ccccc1")
19.8
>>> measurement("CC/C(C)=N/O")
3.82
>>> measurement("CC=C(Cl)Cl")
-2.89
>>> measurement("CCCCCCCCC")
-2.92
>>> measurement("O=Cc1ccc(C(=O)O)cc1")
3.49
>>> measurement("Nc1cccc([N+](=O)[O-])c1")
0.474
>>> measurement("CC#N")
-2.4
>>> measurement("CNc1ccc([N+](=O)[O-])cc1")
-3.38
>>> measurement("O=[N+]([O-])c1ccc(NCCO)c(OCCO)c1")
5.48
>>> measurement("CC(=O)c1cccc([N+](=O)[O-])c1")
1.38
>>> measurement("Cc1cccc2sc(N)nc12")
-9.53
>>> measurement("Cc1ccc([N+](=O)[O-])c(N)c1")
-0.729
>>> measurement("CCCCC(C=O)CC (configuration not stated)")
-0.985
>>> measurement("O=C(Cl)c1ccccc1[N+](=O)[O-]")
-0.396
>>> measurement("C=C(C)OC(C)=O")
-3.17
>>> measurement("CCCCC=O")
-0.364
>>> measurement("COC(=O)CCC(=O)OC")
-3.79

====

- assayText: Cellular Toxicity (caspase-3) H-4-II-E (AID 663);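 also: cells exposed to compound for 16 hr before readout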
- conditionSet: H-4-II-E rat hepatoma, scaled: DMSO 0%, 100 µM tamoxifen 100%; at 92.2 µM (top of the series)
Records with an inconclusive call do not appear.
endpointLabel: caspase-3 activation (%)

>>> measurement("C=Cc1ccccn1")
1.92
>>> measurement("C=C(C)C(=O)OCC(C)C")
0.664
>>> measurement("O=Nc1ccc(NO)cc1")
1.96
>>> measurement("C=Cc1ccc(C=C)cc1")
-0.942
>>> measurement("C1CCOC1")
0.164
>>> measurement("CCCCCCCN")
2.21
>>> measurement("Cc1ccc2c(c1[N+](=O)[O-])C(=O)c1ccccc1C2=O")
-1.7
>>> measurement("C/C(C=O)=C/c1ccccc1")
-1.36
>>> measurement("Cc1c(N)cccc1[N+](=O)[O-]")
-0.123

====

- assayText: Cell Viability - LYMP2-008 (AID 980); also: nearly all actives have a fitted effect of over 60% in size
- conditionSet: LYMP2-008 lymphoblastoid cell viability, qHTS; series mostly up to 92.2 µM
Results filed as inconclusive are left out. Active and inactive are the calls of the source. The call rests on the fitted dose curve; in most records, active means well fitted cell-killing curve with a large enough effect; inconclusive means small, poorly fitted or top-dose-only effect; inactive means flat fitted curve, though single readings scatter.
Classes used: active, inactive

>>> class("CC(=O)CCc1ccccc1")
"inactive"
>>> class("CC1=C(/C=C/C(C)=C/C=C/C(C)=C\\C=O)C(C)(C)CCC1")
"active"
>>> class("O=C1OC(=O)c2c(Br)c(Br)c(Br)c(Br)c21")
"inactive"
>>> class("Cc1cc(C)cc(N)c1")
"inactive"
>>> class("Nc1ccc(Cl)cc1[N+](=O)[O-]")
"inactive"
>>> class("C=CCOC(=O)CCCCCCCC")
"inactive"
>>> class("O=[N+]([O-])c1ccc2nc[nH]c2c1")
"inactive"

====

- assayText: Cellular Toxicity (caspase-3) H-4-II-E (AID 663);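 also: cells exposed to compound for 16 hr before readout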
- conditionSet: H-4-II-E rat hepatoma, scaled: DMSO 0%, 100 µM tamoxifen 100%; at 92.2 µM (top of the series)
Results filed as inconclusive are left out.
endpointLabel: caspase-3 activation (%)

>>> measurement("Oc1cccc(Nc2ccccc2)c1")
-0.0797
>>> measurement("Cc1ccc(C(C)(C)C)cc1")
0.123
>>> measurement("C/C=C1\\CC2C=CC1C2 (stereo unspecified)")
0.51
>>> measurement("C=C(C)C(=O)OCCCCCCCCCC")
-0.285
>>> measurement("O=c1[nH][nH]c(=O)c2cc([N+](=O)[O-])ccc12")
-0.659
>>> measurement("O=[N+]([O-])c1ccc(Cl)cc1Cl")
1.21
>>> measurement("CCOc1cccc(N)c1")
1.28
>>> measurement("Cc1ccc(C#N)cc1")
0.0504
>>> measurement("CC(C)N(C)C")
0.576
>>> measurement("COc1ccc(N)c(OC)c1")
1.91
>>> measurement("C/C=C(/C)C#N")
0.589
>>> measurement("CCCCC(CC)COC(=O)CCCCC(=O)OCC(CC)CCCC (stereo unspecified)")
-0.0264
>>> measurement("CCCOCC(C)O (stereo unspecified)")
-0.784
>>> measurement("Cc1cccc(C)c1O")
-0.375
>>> measurement("ClCCl")
-0.724
>>> measurement("O=C(O)CNC(=O)c1ccc([N+](=O)[O-])cc1")
0.8

====

- assayText: Cell Viability - LYMP2-012 (AID 982);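 also: cellular ATP by luciferase luminescence where a drop means cytotoxicity; cells exposed to compound for one day before reading; nearly all actives have a fitted effect of over 55% in size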
- conditionSet: LYMP2-012 lymphoblastoid cell viability qHTS; series mostly up to 92.2 µM
Records with an inconclusive call do not appear. Active and inactive are the calls of the source. Calls come from the whole dose curve; as a rule, active = well fitted cell-killing curve with a large enough effect; inconclusive = small, poorly fitted or top-dose-only effect; inactive = flat fitted curve, though single readings scatter.
Classes used: Y for active, N for inactive

>>> class("C=C(C)C(=O)OCC(C)O (configuration not stated)")
"N"
>>> class("O=Cc1ccc(CO)o1")
"N"
>>> class("CC(C)(C)c1ccc(OCC2CO2)cc1 (configuration not stated)")
"N"
>>> class("Cc1ccc(C)c(N)c1")
"N"
>>> class("CCCCC(=O)N(C)C")
"N"
>>> class("CC(CCl)OC(C)CCl (configuration not stated)")
"N"
>>> class("Cc1cccc(C)c1")
"N"
>>> class("O=C(Cl)c1cccc([N+](=O)[O-])c1")
"N"
>>> class("Cc1cc(C2(c3cc(C)c(O)cc3C)OS(=O)(=O)c3ccccc32)c(C)cc1O")
"N"
>>> class("CCCCC/C=C/C=C/C=O")
"Y"
>>> class("C=C(C)C(=O)OCC(C)C")
"N"
>>> class("CC(=O)OCc1ccco1")
"N"
>>> class("S=C([S-])NCCNC(=S)[S-].[Zn+2]")
"N"
>>> class("O=C(O)c1cccc(Cl)c1Cl")
"N"
>>> class("CC(C=O)Cc1ccc(C(C)(C)C)cc1 (configuration not stated)")
"N"
>>> class("CC(C)=CCC/C(C)=C/C=O")
"N"
>>> class("C[C@@H]1CC2(OC[C@]3(C)O[C@H]23)O[C@H]2C[C@@]3(C)[C@@H]4CC[C@H]5C(C)(C)C(O[C@@H]6OC[C@@H](O)[C@H](O)[C@H]6O)CC[C@@]56C[C@@]46CC[C@]3(C)[C@@H]12 (some centres not stated)")
"N"
>>> class("ON=C1CCCCC1")
"N"
>>> class("O=CNc1ccccc1")
"N"
>>> class("COC(=O)CC#N")
"N"
>>> class("CCN(CC)c1cccc(O)c1")
"N"
>>> class("NC(N)=S")
"N"
>>> class("CCOCCO")
"N"
>>> class("Cc1c(N)cccc1[N+](=O)[O-]")
"N"
>>> class("ClCCl")
"N"
>>> class("O=C(O[C@@H](C(=O)O)[C@@H](OC(=O)c1ccccc1)C(=O)O)c1ccccc1")
"N"
>>> class("Oc1cccc(Nc2ccccc2)c1")
"N"
>>> class("C1CCCC1")
"N"
>>> class("CCCCCCC=O")
"N"
>>> class("Nc1c(Cl)cc(Cl)cc1Cl")
"N"
>>> class("Cc1cc(C)cc(O)c1")
"N"
>>> class("O=C(O)c1ccc(Cl)c(Cl)c1")
"N"

====

- assayText: Cell Viability - LYMP2-013 (AID 970);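 also: cells exposed to compound for 24 h at 37 °C; nearly all actives have a fitted effect of over 55% in size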
- conditionSet: LYMP2-013 lymphoblastoid cells viability; series mostly up to 92.2 µM
- From the text: NIH Chemical Genomics Center [NCGC] NIH Molecular Libraries Screening Centers Network [MLSCN] National Institutes of Environmental Health Sciences [NIEHS] National Toxicology Program [NTP] We have developed a 1536-well cell-based assay for quantitative high throughput screening (qHTS) against a number of cell lines to determine in vitro cytotoxicity of small molecules. […] 8. Detection; Luminescence; Viewlux plate reader […]
Records with an inconclusive call do not appear. Calls of active or inactive are those of the source. Calls follow the shape of the dose curve; as a rule, active = well fitted cell-killing curve with a large enough effect; inconclusive = small, poorly fitted or top-dose-only effect; inactive = flat fitted curve, though single readings scatter.
Classes used: active, inactive

>>> class("O=C(O)CNC(=O)c1ccc([N+](=O)[O-])cc1")
"inactive"
>>> class("C=CC(=O)NC(C)C")
"inactive"
>>> class("Cc1ccc(C#N)cc1")
"inactive"
>>> class("O=[N+]([O-])c1ccccc1CCO")
"inactive"
>>> class("C=CCCC")
"inactive"
>>> class("c1ccc(Oc2ccccc2)cc1")
"inactive"
>>> class("C/C(C=O)=C/c1ccccc1")
"inactive"
>>> class("CCCCCCCN")
"inactive"
>>> class("O=C(O)c1c(Cl)cccc1Cl")
"inactive"
>>> class("O=Cc1cccc(Br)c1")
"inactive"
>>> class("Cc1cccc(C(=O)O)c1")
"inactive"
>>> class("c1ccc2c(c1)ccc1ncccc12")
"inactive"
>>> class("c1ccc(Nc2ccccc2)cc1")
"inactive"
>>> class("O=C(O)c1ccc(Cl)cc1Cl")
"inactive"
>>> class("CCCCCCCCC/C=C/CC1CC(=O)OC1=O (configuration not stated)")
"inactive"
>>> class("CCCCC/C=C/C=C/C=O")
"active"
>>> class("CC(=O)OC(C)C")
"inactive"
